- Test system: DMS-273
- ASSAY DETAILS: NCI tumour cell line growth inhibition, 48 h
The source made the active and inactive calls. No stated cut-off is given here; in the data, active = GI50 up to about 1.1 µM and inactive = higher.
READOUT KIND: GI50

Below, each entry is followed by its recorded GI50 result.
Lab note: measured GI50 of CCOC(=O)C(C(C)=O)C1CC=CC1 (centres undefined) was > 100 µM (inactive)

Lab note: measured GI50 of Cc1cc(S(=O)(=O)O)c(NC(=O)C(=O)C2C=CCS2(=O)=O)cc1Cl (centres undefined) was > 100 µM (inactive)

Lab note: measured GI50 of C#CCN(N=O)C(=O)ON1C(=O)CCC1=O was > 100 µM (inactive)

Next compound, please.
Lab note: measured GI50 of O=C(OCc1ccccc1)n1cccc1 was > 100 µM (inactive)

====

In this section we review reported GI50 values for a set of compounds.
- Test system: 786-0
- ASSAY DETAILS: NCI tumour cell line growth inhibition, 48 h
Calls of active or inactive are those of the source. Rule as the data show it: active = GI50 up to about 1.1 µM and inactive = higher.

Lab note: measured GI50 of COC(=O)/C(=N\NC(=O)c1ccccc1O)C(C#N)c1ccc(Cl)cc1 (centres undefined) was 18 µM (inactive)

Lab note: measured GI50 of COc1ccc(N2C(=O)c3c(c4[nH]c5ccc(OC)cc5c4c4ccc(C(C)(C)C)cc34)C2=O)cc1 was > 100 µM (inactive)

New cases:
Lab note: measured GI50 of CC(C)(C)C(=O)Nc1cccc2oc(-c3ccccc3)cc12 was > 100 µM (inactive)

Lab note: measured GI50 of CCOC(=O)/C(=C\c1ccc(CO)o1)P(=O)(OCC)OCC was 19.7 µM (inactive)

Lab note: measured GI50 of O=C(Oc1ccccc1)N1c2ccccc2[C@@]23O[C@]24CCC[C@H]3C#C/C=C\C#C[C@H]14 was 10.5 µM (inactive)

Lab note: measured GI50 of O=C(NCc1ccccc1)c1cc2cc(O)c(O)cc2cn1 was 22.9 µM (inactive)

====

In this section we review reported GI50 values for a set of compounds.
- System: UO-31
- ASSAY DETAILS: NCI tumour cell line growth inhibition, 48 h
The source made the active and inactive calls. Rule as the data show it: active = GI50 up to about 1.1 µM and inactive = higher.

Below, each entry is followed by its recorded GI50 result.
Lab note: measured GI50 of Oc1ccc(O)c(-n2cccn2)c1-n1cccn1 was > 100 µM (inactive)

Lab note: measured GI50 of CC(CCC(=O)O)[C@H]1CCC2[C@H]3C(CC(=O)[C@@]21C)[C@@]1(C)CCC(O)C[C@H]1C[C@@H]3O (some centres not stated) was > 100 µM (inactive)

Lab note: measured GI50 of CC(C)CNC(=O)c1c(NC(=O)c2ccccc2)sc2[nH]c(=O)n(-c3ccccc3)c(=O)c12 was > 71.4 µM (inactive)

Lab note: measured GI50 of Cc1cc2ccccc2n2c1nc1ccccc12 was > 100 µM (inactive)

Lab note: measured GI50 of COc1cc(C(O)c2ccc3c(c2)OCO3)cc(OC)c1OC (configuration not stated) was 61.2 µM (inactive)

New cases:
Lab note: measured GI50 of COc1cc(OC)cc(OCc2ccc3nc(-c4ccccc4)c(Cl)nc3c2)c1 was 66.2 µM (inactive)

Lab note: measured GI50 of O=C1Nc2ccccc2/C1=N/Nc1nc(-c2cccc([N+](=O)[O-])c2)cs1 was 55.3 µM (inactive)

From: ChEMBL document CHEMBL1201862
